test system: Bacteroides dorei; assay: growth AUC relative to DMSO control (median of replicates) (fraction); higher = more growth (less inhibition), active = hit call of the paper; conditions: 20 µM; 24 h
Form field: growth AUC (one value per entry).

- COMPOUND: "CCNC(=O)NC(=O)/C(C#N)=N/OC"
  TESTED_SYSTEM: "Bacteroides dorei"
  growth AUC: 0.983
- COMPOUND: "CCCCC(CC)COC(=O)c1ccccc1C(=O)OCC(CC)CCCC (centres undefined)"
  TESTED_SYSTEM: "Bacteroides dorei"
  growth AUC: 0.963
- COMPOUND: "Oc1ccc(Cl)c(Cl)c1Cl"
  TESTED_SYSTEM: "Bacteroides dorei"
  growth AUC: 1.02
- COMPOUND: "CCCCc1c(C)nc(NCC)nc1OS(=O)(=O)N(C)C"
  TESTED_SYSTEM: "Bacteroides dorei"
  growth AUC: 0.909
- COMPOUND: "O=C(OC1CCCCC1)c1ccccc1C(=O)OC1CCCCC1"
  TESTED_SYSTEM: "Bacteroides dorei"
  growth AUC: 0.985
- COMPOUND: "CC(C)N1C(=O)N(c2ccccc2)CSC1=NC(C)(C)C"
  TESTED_SYSTEM: "Bacteroides dorei"
  growth AUC: 0.946
- COMPOUND: "COP(=S)(OC)Oc1ccc(S(C)(=O)=O)c(C)c1"
  TESTED_SYSTEM: "Bacteroides dorei"
  growth AUC: 0.974
- COMPOUND: "CCOP(=O)(OCC)Oc1ccc(S(C)(=O)=O)cc1"
  TESTED_SYSTEM: "Bacteroides dorei"
  growth AUC: 1.01
- COMPOUND: "NCCO.O=C(O)c1nc(Cl)ccc1Cl"
  TESTED_SYSTEM: "Bacteroides dorei"
  growth AUC: 0.987
